- procedure-text: In vitro cytotoxicity assay (MTT cell viability) in HepG2 cells
- Assay type: cell-based, human
- test-settings: human
So I've got a bunch of molecules here, and I need their CC50 at 7 days values.

Input: Any idea what CC50 at 7 days was measured for Cc1c(C(=O)Nc2cccc(C(F)F)c2)c(C)n(C)c1C(=O)C(=O)N[C@]1(C)C[C@H](O)C1 ?
Output: > 30 µM

Input: Try Cc1noc([C@@H](NC(=O)C(=O)c2c(Cl)c(C(=O)Nc3ccc(F)c(C)c3)c3n2CCCC3)C(C)C)n1 next.
Output: 5 to 30 µM

Input: Try Cc1cc(NC(=O)c2c(C)c(C(=O)C(=O)NC(C)(C)CO)n(C)c2C)ccc1F next.
Output: > 30 µM

Input: Try Cc1cc(NC(=O)c2c(C)c(C(=O)C(=O)Nc3nc(CO)cs3)n(C)c2C)ccc1F next.
Output: > 30 µM

Input: Try Cc1cc(NC(=O)c2c(C)c(C(=O)C(=O)NC3(CO)CCOC3)n(C)c2C)ccc1F (stereo not shown) next.
Output: > 30 µM

Give one value of CC50 at 7 days per listed molecule.
1. Cc1cc(NC(=O)c2c(C)c(C(=O)C(=O)NC3CCC(F)(F)CC3)n(C)c2C)ccc1F
2. Cc1cc(NC(=O)c2c(C)c(C(=O)C(=O)N[C@@H]3CCNC3=O)n(C)c2C)ccc1F
3. Cc1noc([C@H](C)NC(=O)C(=O)c2c(Cl)c(C(=O)Nc3ccc(F)c(C)c3)c3n2CCC3)n1
4. Cc1nc(C2(NC(=O)C(=O)c3c(C)c(C(=O)Nc4ccc(F)c(C)c4)c(C)n3C)CCCC2)no1
5. CC(C)(O)CNC(=O)C(=O)c1c(Cl)c(C(=O)Nc2ccc(F)c(Cl)c2)c2n1CCCC2
6. Cc1c(C(=O)Nc2cccc(Cl)c2)c(C)n(C)c1C(=O)C(=O)N[C@H](C)C(F)(F)F
7. Cc1cc(NC(=O)c2c(C)c(C(=O)C(=O)NC3(C)CCOCC3)n(C)c2C)ccc1F
8. Cc1cc(NC(=O)c2c(C)c(C(=O)C(=O)N[C@@H]3CCOC[C@H]3O)n(C)c2C)ccc1F

Output:
["5 to 30 µM", "> 30 µM", "5 to 30 µM", "> 30 µM", "0.5 to 4.99 µM", "5 to 30 µM", "> 30 µM", "> 30 µM"]

Give one value of CC50 at 7 days per listed molecule.
1. C#CCNC(=O)C(=O)c1c(C)c(C(=O)Nc2ccc(F)c(C)c2)c(C)n1C
2. Cc1c(C(=O)Nc2cccc(Cl)c2)c(C)n(C)c1C(=O)C(=O)NC(C)(C)CO
3. Cc1c(C(=O)Nc2ccc(F)nc2)c(C)n(C)c1C(=O)C(=O)NC1C2CC3CC(C2)CC1C3 (stereo not shown)

Output:
1. > 30 µM
2. > 30 µM
3. > 30 µM

* * *

So I've got a bunch of compounds here, and I need their CC50 at 7 days values.
- procedure-text: In vitro cytotoxicity assay (MTT cell viability) in HepG2 cells
- Format: cell-based, human
- test-settings: human

Here is how some compounds turned out for CC50 at 7 days.
Input: Any idea what CC50 at 7 days was measured for CNC(=O)[C@@H](NC(=O)C(=O)c1c(C)c(C(=O)Nc2ccc(F)c(C)c2)c(C)n1C)[C@H](C)O ?
Output: > 30 µM

Input: Try Cc1nc2c(s1)CCCC2NC(=O)C(=O)c1c(C)c(C(=O)Nc2ccc(F)c(C)c2)c(C)n1C (stereo not drawn) next.
Output: > 30 µM

Input: Try Cc1cc(NC(=O)c2c(C)c(C(=O)C(=O)NC3CCN(c4cnccn4)CC3)n(C)c2C)ccc1F next.
Output: > 30 µM

Input: Try Cc1cc(NC(=O)c2c(C)c(C(=O)C(=O)N[C@@H]3CC[C@@H](O)C3)n(C)c2C)cnc1F next.
Output: > 30 µM

Input: Try Cc1cc(NC(=O)c2c(C)c(C(=O)C(=O)N[C@H](C)CCO)n(C)c2C)ccc1F next.
Output: > 30 µM

Give one value of CC50 at 7 days per listed compound.
1. Cc1cc(NC(=O)c2c(C)c(C(=O)C(=O)NC3(CO)CCCC3)n(C)c2C)ccc1F
2. Cc1nnc(CCNC(=O)C(=O)c2c(C)c(C(=O)Nc3ccc(F)c(C)c3)c(C)n2C)s1
3. Cc1cc(NC(=O)c2c(C)c(C(=O)C(=O)NC3(C)CCN(C(=O)c4ccnn4C)CC3)n(C)c2C)ccc1F
4. Cc1noc(C(NC(=O)C(=O)c2c(C)c(C(=O)Nc3ccc(F)c(C)c3)c(C)n2C)C2CCOCC2)n1 (stereo not drawn)
5. Cc1c(C(=O)Nc2ccc(F)c(F)c2)c(C)n(C)c1C(=O)C(=O)NC12CCC(O)(CC1)CC2
6. CNC(=O)[C@@H](NC(=O)C(=O)c1c(C)c(C(=O)Nc2ccc(F)c(C)c2)c(C)n1C)C1CCCC1

Output:
1. > 30 µM
2. > 30 µM
3. > 30 µM
4. > 30 µM
5. > 30 µM
6. 0.5 to 4.99 µM

Give one value of CC50 at 7 days per listed compound.
1. Cc1cc(NC(=O)c2c(C)c(C(=O)C(=O)N[C@H]3CC[C@H](C(C)(C)O)CC3)n(C)c2C)ccc1F
2. Cc1cc(NC(=O)c2c(C)c(C(=O)C(=O)N[C@H](C(N)=O)[C@H](C)O)n(C)c2C)ccc1F
3. Cc1noc([C@@H](C)NC(=O)C(=O)c2c(C)c(C(=O)Nc3ccc(F)c(F)c3)c3n2CCCC3)n1
4. Cc1cc(NC(=O)c2c(C)c(C(=O)C(=O)NC3(CO)CCC3)n(C)c2C)ccc1F

Output:
["> 30 µM", "> 30 µM", "> 30 µM", "> 30 µM"]

* * *

- procedure-text: In vitro cytotoxicity assay (MTT cell viability) in HepG2 cells
- Assay type: cell-based, human
- test-settings: human
So I've got a bunch of compounds here, and I need their CC50 at 7 days values.

Here is how some compounds turned out for CC50 at 7 days.
Input: Any idea what CC50 at 7 days was measured for Cc1c(C(=O)Nc2ncc(C(F)(F)F)s2)c2n(c1C(=O)C(=O)NC1(CO)CCC1)CCCC2 [Example 749] ?
Output: > 30 µM

Input: Try Cc1cc(NC(=O)c2c(C)c(C(=O)C(=O)NC3(CO)CC(F)(F)C3)n(C)c2C)cnc1F [Example 184] next.
Output: > 30 µM

Input: Try Cc1cc(NC(=O)c2c(C)c(C(=O)C(=O)NCc3csc(N)n3)n(CCF)c2C)ccc1F [Example 229] next.
Output: > 30 µM

Input: Try Cc1cc(NC(=O)c2c(C)c(C(=O)C(=O)N[C@@H]3CC[C@@H](O)[C@@H]3O)n(CCF)c2C)ccc1F [Example 197] next.
Output: > 30 µM

Input: Try Cc1c(C(=O)Nc2ccc(F)nc2)c(C)n(C)c1C(=O)C(=O)N[C@H](C)C(F)(F)F [Example 166] next.
Output: > 30 µM

Give one value of CC50 at 7 days per listed compound.
1. Cc1cc(NC(=O)c2c(Cl)c(C(=O)C(=O)NC3(CO)CCC3)n3c2CCC3)ccc1F [Example 541]
2. Cc1c(C(=O)NC2CCC(F)(F)C2)c2n(c1C(=O)C(=O)NC(C)(C)CO)CCCC2 (stereo not drawn) [Example 752]
3. Cc1cc(NC(=O)c2c(C)c(C(=O)C(=O)N[C@@H](C(N)=O)C3CCCCC3)n(C)c2C)ccc1F [Example 102]
4. Cc1c(C(=O)Nc2ccc(F)nc2)c(C)n(C)c1C(=O)C(=O)NC1(C)CCOCC1 [Example 325]
5. Cc1nnc(C(C)NC(=O)C(=O)c2c(C)c(C(=O)Nc3ccc(F)c(C)c3)c(C)n2C)o1 (stereo not drawn) [Example 181]
6. Cc1cc(NC(=O)c2c(C)c(C(=O)C(=O)N[C@@H]3CCCNC3=O)n(C)c2C)ccc1F [Example 673]
7. Cc1cc(NC(=O)c2c(C)c(C(=O)C(=O)NC3CCC(F)(F)CC3)n(C)c2C)cnc1F [Example 343]
8. Cc1cc(NC(=O)c2c(Cl)c(C(=O)C(=O)NCc3cnc(N)s3)n3c2CCC3)ccc1F [Example 552]

Output:
1: > 30 µM; 2: > 30 µM; 3: 0.5 to 4.99 µM; 4: > 30 µM; 5: > 30 µM; 6: > 30 µM; 7: > 30 µM; 8: 5 to 30 µM

Give one value of CC50 at 7 days per listed compound.
1. O=C(N[C@H]1CCC[C@H]1O)C(=O)c1c(Cl)c(C(=O)Nc2ccc(F)c(Cl)c2)c2n1CCCC2 [Example 514]
2. CC[C@@H](CO)NC(=O)C(=O)c1c(OC)c(C(=O)Nc2ccc(F)c(F)c2)c(C)n1C [Example 385]
3. Cc1cc(NC(=O)c2c(Cl)c(C(=O)C(=O)N[C@H]3CCC[C@H]3O)n3c2CCC3)ccc1F [Example 547]

Output:
["5 to 30 µM", "> 30 µM", "5 to 30 µM"]
